What Top (MFI) was measured for each of the following?
- SUBJECT OF TEST: T1, human SLC34A2 (human, UniProt O95436 1-690)
- T1 construct: whole, on cells; also called human solute carrier 34 A2; NaPi2b
- T1 sequence (looked up): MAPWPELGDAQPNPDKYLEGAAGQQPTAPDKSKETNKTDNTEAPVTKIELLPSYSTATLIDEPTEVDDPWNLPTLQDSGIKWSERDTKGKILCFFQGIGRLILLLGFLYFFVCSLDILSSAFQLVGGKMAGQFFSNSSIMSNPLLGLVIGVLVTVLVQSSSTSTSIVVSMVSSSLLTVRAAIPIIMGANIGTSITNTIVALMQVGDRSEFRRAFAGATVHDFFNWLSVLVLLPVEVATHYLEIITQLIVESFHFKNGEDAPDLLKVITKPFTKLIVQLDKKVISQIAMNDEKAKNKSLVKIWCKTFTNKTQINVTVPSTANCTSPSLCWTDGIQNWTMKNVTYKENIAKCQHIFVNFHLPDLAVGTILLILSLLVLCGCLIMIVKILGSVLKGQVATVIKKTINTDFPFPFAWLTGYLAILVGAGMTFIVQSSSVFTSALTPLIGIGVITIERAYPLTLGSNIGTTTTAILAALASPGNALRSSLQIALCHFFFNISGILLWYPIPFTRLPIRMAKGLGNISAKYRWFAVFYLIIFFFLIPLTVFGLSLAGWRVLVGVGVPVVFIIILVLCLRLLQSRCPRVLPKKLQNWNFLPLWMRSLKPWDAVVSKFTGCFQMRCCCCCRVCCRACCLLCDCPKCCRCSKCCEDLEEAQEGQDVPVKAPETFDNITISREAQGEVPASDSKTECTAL
- ASSAY OVERVIEW: FACS, RMG-1 cells
Numbers only, in MFI.

BINDER | QUANTITY KIND | READING UNIT | RESULT VALUE
xi84F2D10 hIgG1 (antibody, V domains shown, chimeric, hIgG1) VH: QVQLQQPGAVLVKPGASVKMSCKASGYTFTSYNLHWVKQTPGQGLEWIGAIYPGNGDTSYIQKFKGKATLTADKSSSTAYMQLSSLTSEDSAVYYCARGKYGNYEGFAYWGQGTLVTVSA VL: DILLTQSPAILSVSPGERVSISCRASQSIGTSIYWYQQRRNGSPRLLIKFASESISGIPSRFSGSGSGTDFTLSINSVESEDIADYYCQQNNRWPFTFGSGTKLEIK | Top (MFI) | MFI | 8600

Incoming: Dear colleague, I am looking for the recorded Top (MFI) of the following binder: xi71F7D4 hIgG1 (antibody, V domains shown, chimeric, hIgG1) VH: DVKLVESGGDLVKLGGSLKLSCAASGFTFSNYYMSWVRQTPEKRLELVAVINSNGGTTYYPDNMKGRFTISRDNAKNTLYLQTSSLKSEDTALYYCGRHEHYYGTNIAWFAYWGQGTLVTVSA VL: DIVMTQSHKFMSTSVGDRVSITCKASQDVTTAVAWYQQKPGQSPKLLIYWASTRHTGVPDRFTGSGSGTDHTLTISSVQAEDLALYYCQQHYSTPVTFGGGTKLEIK
Outgoing: 10200

Origin of values: patent US20240301052A1
